Taken from the NIST ThermoML archive (doi:10.1021/je050402s).

# experiment-notes: xn = mol fraction of the nth substance listed
# measurement-parameters: 318.15 K; 100.5 kPa; Liquid; x1 = 0.4
Consider the following molecules and their measured mass density readings.
measured-parameter: mass density (kg/m3)

1. CCOC(=O)CC(C)C [ethyl 3-methylbutanoate] + CCO
811.75
2. COC(=O)c1ccccc1 [methyl benzoate] + CCO
944.3
3. CCC(=O)OCc1ccccc1 [benzyl propanoate] + CCO
924.65
4. CCOC(=O)c1ccccc1O [ethyl 2-hydroxybenzoate] + CCO
981.22
5. CC(=O)OCc1ccccc1 [benzyl ethanoate] + CCO
932.88
6. CCOC(=O)CC(C)=O [ethyl 3-oxobutanoate] + CCO
906.18

---

# experiment-notes: xn = mol fraction of the nth substance listed
# measurement-parameters: 288.15 K; 100.5 kPa; Liquid; Capillary tube (Ostwald / Ubbelohde) method; x1 = 0.5
Consider the following compounds and their measured viscosity readings.
measured-parameter: viscosity (mPa·s)

1) CCOC(=O)CC(C)C [ethyl 3-methylbutanoate] + CCO
0.855
2) CC(=O)OCc1ccccc1 [benzyl ethanoate] + CCO
1.724
3) CCOC(=O)CC(C)=O [ethyl 3-oxobutanoate] + CCO
1.349
4) CCC(=O)OCc1ccccc1 [benzyl propanoate] + CCO
1.821
5) COC(=O)c1ccccc1 [methyl benzoate] + CCO
1.589

---

# experiment-notes: xn = mol fraction of the nth substance listed
# measurement-parameters: 318.15 K; 100.5 kPa; Liquid; Capillary tube (Ostwald / Ubbelohde) method; x1 = 0.7
Consider the following compounds and their measured viscosity readings.
measured-parameter: viscosity (mPa·s)

1) CCOC(=O)CC(C)=O [ethyl 3-oxobutanoate] + CCO
0.917
2) CCOC(=O)CC(C)C [ethyl 3-methylbutanoate] + CCO
0.547
3) CCC(=O)OCc1ccccc1 [benzyl propanoate] + CCO
1.233
4) COC(=O)c1ccccc1 [methyl benzoate] + CCO
1.047
5) CC(=O)OCc1ccccc1 [benzyl ethanoate] + CCO
1.156

---

Consider the following molecules and their measured viscosity readings.
# experiment-notes: xn = mol fraction of the nth substance listed
# measurement-parameters: 318.15 K; 100.5 kPa; Liquid; Capillary tube (Ostwald / Ubbelohde) method; x1 = 0.45
measured-parameter: viscosity (mPa·s)

1. COC(=O)c1ccccc1 [methyl benzoate] + CCO
0.902
2. CCOC(=O)CC(C)C [ethyl 3-methylbutanoate] + CCO
0.565
3. CCOC(=O)CC(C)=O [ethyl 3-oxobutanoate] + CCO
0.789
4. CCC(=O)OCc1ccccc1 [benzyl propanoate] + CCO
1.027
5. CC(=O)OCc1ccccc1 [benzyl ethanoate] + CCO
0.971

---

# experiment-notes: xn = mol fraction of the nth substance listed
# measurement-parameters: 288.15 K; 100.5 kPa; Liquid; x1 = 0.05
Consider the following compounds and their measured mass density readings.
measured-parameter: mass density (kg/m3)

1) CC(=O)OCc1ccccc1 [benzyl ethanoate] + CCO
825.52
2) CCC(=O)OCc1ccccc1 [benzyl propanoate] + CCO
825.63
3) CCOC(=O)CC(C)=O [ethyl 3-oxobutanoate] + CCO
818.78
4) CCOC(=O)CC(C)C [ethyl 3-methylbutanoate] + CCO
802.64
5) COC(=O)c1ccccc1 [methyl benzoate] + CCO
825.66
6) CCOC(=O)c1ccccc1O [ethyl 2-hydroxybenzoate] + CCO
835.47

---

# experiment-notes: xn = mol fraction of the nth substance listed
# measurement-parameters: 308.15 K; 100.5 kPa; Liquid; Capillary tube (Ostwald / Ubbelohde) method; x1 = 0.55
Consider the following compounds and their measured viscosity readings.
measured-parameter: viscosity (mPa·s)

1) COC(=O)c1ccccc1 [methyl benzoate] + CCO
1.123
2) CCOC(=O)CC(C)C [ethyl 3-methylbutanoate] + CCO
0.631
3) CCC(=O)OCc1ccccc1 [benzyl propanoate] + CCO
1.31
4) CCOC(=O)CC(C)=O [ethyl 3-oxobutanoate] + CCO
0.974
5) CC(=O)OCc1ccccc1 [benzyl ethanoate] + CCO
1.223

---

# experiment-notes: xn = mol fraction of the nth substance listed
# measurement-parameters: 298.15 K; 100.5 kPa; Liquid; Capillary tube (Ostwald / Ubbelohde) method; x1 = 0.5
measured-parameter: viscosity (mPa·s)

1) CCOC(=O)CC(C)=O [ethyl 3-oxobutanoate] + CCO
1.117
2) CC(=O)OCc1ccccc1 [benzyl ethanoate] + CCO
1.413
3) COC(=O)c1ccccc1 [methyl benzoate] + CCO
1.303
4) CCC(=O)OCc1ccccc1 [benzyl propanoate] + CCO
1.509
5) CCOC(=O)CC(C)C [ethyl 3-methylbutanoate] + CCO
0.733

---

Consider the following molecules and their measured mass density readings.
# experiment-notes: xn = mol fraction of the nth substance listed
# measurement-parameters: 288.15 K; 100.5 kPa; Liquid; x1 = 0.95
measured-parameter: mass density (kg/m3)

1) CCOC(=O)CC(C)=O [ethyl 3-oxobutanoate] + CCO
1028.15
2) CCC(=O)OCc1ccccc1 [benzyl propanoate] + CCO
1032.37
3) CCOC(=O)c1ccccc1O [ethyl 2-hydroxybenzoate] + CCO
1127.85
4) COC(=O)c1ccccc1 [methyl benzoate] + CCO
1086.31
5) CCOC(=O)CC(C)C [ethyl 3-methylbutanoate] + CCO
868.03
6) CC(=O)OCc1ccccc1 [benzyl ethanoate] + CCO
1054.57

---

# experiment-notes: xn = mol fraction of the nth substance listed
# measurement-parameters: 288.15 K; 100.5 kPa; Liquid; Capillary tube (Ostwald / Ubbelohde) method; x1 = 0.05
Numbers after ± are expanded uncertainties.
Consider the following compounds and their measured viscosity readings.
measured-parameter: viscosity

1) CCC(=O)OCc1ccccc1 [benzyl propanoate] + CCO
1.352 ± 0.014 mPa·s
2) COC(=O)c1ccccc1 [methyl benzoate] + CCO
1.324 ± 0.014 mPa·s
3) CCOC(=O)CC(C)=O [ethyl 3-oxobutanoate] + CCO
1.266 ± 0.014 mPa·s
4) CC(=O)OCc1ccccc1 [benzyl ethanoate] + CCO
1.317 ± 0.014 mPa·s
5) CCOC(=O)CC(C)C [ethyl 3-methylbutanoate] + CCO
1.229 ± 0.014 mPa·s

---

# experiment-notes: xn = mol fraction of the nth substance listed
# measurement-parameters: 298.15 K; 100.5 kPa; Liquid; x1 = 0.2
measured-parameter: mass density (kg/m3)

1) CC(=O)OCc1ccccc1 [benzyl ethanoate] + CCO
888.4
2) CCOC(=O)c1ccccc1O [ethyl 2-hydroxybenzoate] + CCO
919.64
3) CCOC(=O)CC(C)=O [ethyl 3-oxobutanoate] + CCO
869.45
4) COC(=O)c1ccccc1 [methyl benzoate] + CCO
892.4
5) CCOC(=O)CC(C)C [ethyl 3-methylbutanoate] + CCO
813.77
6) CCC(=O)OCc1ccccc1 [benzyl propanoate] + CCO
885.82

---

# experiment-notes: xn = mol fraction of the nth substance listed
# measurement-parameters: 298.15 K; 100.5 kPa; Liquid; Capillary tube (Ostwald / Ubbelohde) method; x1 = 0.8
measured-parameter: viscosity (mPa·s)

1. CCC(=O)OCc1ccccc1 [benzyl propanoate] + CCO
1.858
2. COC(=O)c1ccccc1 [methyl benzoate] + CCO
1.581
3. CCOC(=O)CC(C)=O [ethyl 3-oxobutanoate] + CCO
1.366
4. CCOC(=O)CC(C)C [ethyl 3-methylbutanoate] + CCO
0.716
5. CC(=O)OCc1ccccc1 [benzyl ethanoate] + CCO
1.76

---

# experiment-notes: xn = mol fraction of the nth substance listed
# measurement-parameters: 298.15 K; 100.5 kPa; Liquid; Capillary tube (Ostwald / Ubbelohde) method; x1 = 0.3
measured-parameter: viscosity (mPa·s)

1) CCOC(=O)CC(C)C [ethyl 3-methylbutanoate] + CCO
0.791
2) CCOC(=O)CC(C)=O [ethyl 3-oxobutanoate] + CCO
1.019
3) CC(=O)OCc1ccccc1 [benzyl ethanoate] + CCO
1.231
4) COC(=O)c1ccccc1 [methyl benzoate] + CCO
1.171
5) CCC(=O)OCc1ccccc1 [benzyl propanoate] + CCO
1.298

---

# experiment-notes: xn = mol fraction of the nth substance listed
# measurement-parameters: 308.15 K; 100.5 kPa; Liquid; x1 = 0.75
measured-parameter: mass density (kg/m3)

1. COC(=O)c1ccccc1 [methyl benzoate] + CCO
1034.95
2. CCC(=O)OCc1ccccc1 [benzyl propanoate] + CCO
992.35
3. CCOC(=O)CC(C)=O [ethyl 3-oxobutanoate] + CCO
981.29
4. CCOC(=O)c1ccccc1O [ethyl 2-hydroxybenzoate] + CCO
1076.24
5. CCOC(=O)CC(C)C [ethyl 3-methylbutanoate] + CCO
840.55
6. CC(=O)OCc1ccccc1 [benzyl ethanoate] + CCO
1010.07

---

Consider the following molecules and their measured viscosity readings.
# experiment-notes: xn = mol fraction of the nth substance listed
# measurement-parameters: 308.15 K; 100.5 kPa; Liquid; Capillary tube (Ostwald / Ubbelohde) method; x1 = 0.6
measured-parameter: viscosity (mPa·s)

1. COC(=O)c1ccccc1 [methyl benzoate] + CCO
1.158
2. CCC(=O)OCc1ccccc1 [benzyl propanoate] + CCO
1.358
3. CCOC(=O)CC(C)C [ethyl 3-methylbutanoate] + CCO
0.624
4. CC(=O)OCc1ccccc1 [benzyl ethanoate] + CCO
1.268
5. CCOC(=O)CC(C)=O [ethyl 3-oxobutanoate] + CCO
1.004
